Tested on: PDC-DUC18828
Assay Details: cell viability of compound + 1 nM pemigatinib relative to pemigatinib-only (DMSO) wells (fraction); PDC-DUC18828 is a patient-derived cholangiocarcinoma cell line; higher = less growth inhibition
Run Conditions: first compound 1 µM; pemigatinib concentration 1 nM; 72 h
Counter-ions that a name gives are not always drawn. Over roughly 1,900 compounds, “cell viability of compound + 1 nM pemigatinib relative to pemigatinib-only (DMSO) wells” has its median near 0.95 nM; the lowest 2% begin near 0.22 nM. The entries come from a sample that favours the lowest values as a whole.
Exercise: state measured cell viability for each of the molecules provided.
One number for each entry.

Consider the reported cell viability for these molecules:
# Molecule, Val
rows = [
    ("CC(NC(C)(C)C)C(=O)c1cccc(Cl)c1 (stereo unspecified) [Amfebutamone HCl] + CCN1C(=O)N(c2c(F)c(OC)cc(OC)c2F)Cc2cnc3[nH]c(CN4CCOCC4)cc3c21", 0.961),
    ("C[N+]1(C)[C@@H]2C[C@@H](OC(=O)[C@H](CO)c3ccccc3)C[C@H]1[C@@H]1O[C@@H]12 [Methscopolamine] + CCN1C(=O)N(c2c(F)c(OC)cc(OC)c2F)Cc2cnc3[nH]c(CN4CCOCC4)cc3c21", 0.984),
    ("CC(C)N(CCNC(=O)CN1CCCC1=O)C(C)C [Pramiracetam] + CCN1C(=O)N(c2c(F)c(OC)cc(OC)c2F)Cc2cnc3[nH]c(CN4CCOCC4)cc3c21", 0.955),
    ("COc1cc(C)[nH]c(=O)c1CNC(=O)c1c(C)n([C@H](C)C2CCOCC2)c2ccccc12 + CCN1C(=O)N(c2c(F)c(OC)cc(OC)c2F)Cc2cnc3[nH]c(CN4CCOCC4)cc3c21", 0.971),
    ("CC(C)(C)c1cc(C=C(C#N)C#N)cc(Br)c1O + CCN1C(=O)N(c2c(F)c(OC)cc(OC)c2F)Cc2cnc3[nH]c(CN4CCOCC4)cc3c21", 0.966),
]

Now for a further molecule.
Bench note: what cell viability did Cc1cccc(C)c1NC1=NCCCS1 [Xylazine HCl] + CCN1C(=O)N(c2c(F)c(OC)cc(OC)c2F)Cc2cnc3[nH]c(CN4CCOCC4)cc3c21 show?
0.954
